Test system: 242566-281-R-J2-PDC complex spheroid viability;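 further: spheroids exposed to compound for 7 days before readout; 100% = DMSO vehicle control wells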
METHOD: Anticancer human tumor 242566-281-R-J2-PDC patient-derived pancreatic carcinoma cell line growth inhibition [RAS]
MEASUREMENT_CONTEXT: second compound 0.00949 µM; first compound 10 µM; active compounds read low
Assign viability, T/C to each entry below.
Give bare numbers, in %.

For each of the compounds below, state viability, T/C.
1. CC1(O)CCCC1n1c(=O)c(C(F)F)cc2cnc(NC3CCN(S(C)(=O)=O)CC3)nc21 (configuration not stated) + CCn1c(-c2cccnc2C(C)OC)c2c3cc(ccc31)N1CCOC(CC(NC(=O)C(C(C)C)N(C)C(=O)C3(F)CCN(C(=O)C#CC(C)(C)N(C)C)CC3)C(=O)N3CCCC(N3)C(=O)OCC(C)(C)C2)C1
2. C[C@@H](NC(=O)c1ncnc(N)c1Cl)c1ncc(C(=O)Nc2cc(C(F)(F)F)c(Cl)cn2)s1 + CCn1c(-c2cc(N3CCN(C)CC3)cnc2C(C)OC)c2c3cc(ccc31)-c1csc(n1)CC(NC(=O)C1CC1C)C(=O)N1CCCC(N1)C(=O)OCC(C)(C)C2

[A]
41.2
52.7
